Please go through the items and note down their PBM E-score.
Biological target: Yap3 (UniProt P38749)
Sequence: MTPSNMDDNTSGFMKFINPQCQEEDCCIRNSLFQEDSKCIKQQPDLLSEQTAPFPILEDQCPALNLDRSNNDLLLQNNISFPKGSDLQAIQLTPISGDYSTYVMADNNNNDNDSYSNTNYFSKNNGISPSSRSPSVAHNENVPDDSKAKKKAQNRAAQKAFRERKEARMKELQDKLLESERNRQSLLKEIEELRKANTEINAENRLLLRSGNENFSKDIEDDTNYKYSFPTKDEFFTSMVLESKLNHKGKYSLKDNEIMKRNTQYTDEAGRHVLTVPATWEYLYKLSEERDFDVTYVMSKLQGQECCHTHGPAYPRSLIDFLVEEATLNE
Test: PBM E-score (8-mer binding enrichment) (E-score (-0.5 to 0.5)); higher = stronger / more preferred TF binding
Conditions: protein concentration: 100 nM; construct: GST-full length
In all, about 33,000 sequences were measured (“E-score (-0.5 to 0.5)”: median about -0.0034, highest 2% from about 0.25 on). Many of the other results were omitted from the sample, so the highest values are more common in it than they were.
One number for each entry.

Some solved cases for reference:
| entry.sequence | PBM E-score |
| --- | --- |
| CTCTATAA | 0.0647 |
| AATAAAAC | 0.315 |

I would be grateful if you could provide PBM E-score for each of the following entries.
1. AGCTTGCG
2. AATAATAT
3. ATGCGCCG
4. AATAATCC
5. AATAATGT
6. ACTATGTG
7. ATTATGTC

1. -0.219
2. 0.337
3. 0.00281
4. 0.109
5. 0.233
6. -0.0195
7. 0.198

====

Target: Yap3 (UniProt P38749)
Sequence: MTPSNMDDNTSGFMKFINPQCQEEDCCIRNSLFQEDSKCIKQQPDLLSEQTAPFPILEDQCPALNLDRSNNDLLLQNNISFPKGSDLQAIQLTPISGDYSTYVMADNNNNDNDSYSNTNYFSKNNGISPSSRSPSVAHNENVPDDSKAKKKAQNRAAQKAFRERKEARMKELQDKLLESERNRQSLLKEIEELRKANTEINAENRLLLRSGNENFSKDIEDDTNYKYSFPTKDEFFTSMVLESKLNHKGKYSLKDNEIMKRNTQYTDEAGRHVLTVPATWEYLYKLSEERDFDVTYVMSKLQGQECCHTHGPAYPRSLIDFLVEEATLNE
Assay: PBM E-score (8-mer binding enrichment) (E-score (-0.5 to 0.5)); higher = stronger / more preferred TF binding
Settings: protein concentration: 100 nM; construct: GST-full length
In all, about 33,000 sequences were measured (“E-score (-0.5 to 0.5)”: median about -0.0034, highest 2% from about 0.25 on). Only a selection was taken, and the highest values are over-represented in it overall.
readout.kind: PBM E-score

I would be grateful if you could provide PBM E-score for each of the following entries.
1. AATATATG
2. AGCACGTG
3. AAATATTG
4. ACTAATTG
5. GCTAATAC
6. GGAGCGCA
7. ATTTAGTC
8. ACTAAGAC

0.304
0.127
0.269
0.167
0.176
-0.261
0.167
-0.0709
